system: UACC-62; assay: NCI tumour cell line growth inhibition, 48 h
Calls of active or inactive are those of the source. No stated cut-off is given here; in the data, active = GI50 up to about 1.1 µM and inactive = higher.
What GI50 was measured for each of the following?

CCO/N=[N+](\[O-])N(CC)CC : > 100 µM (inactive)
CC1=C(C(=O)OC(C)C)C(c2cccc([N+](=O)[O-])c2)C(C(=O)OC(CO[N+](=O)[O-])CO[N+](=O)[O-])=C(C)N1 (stereo unspecified) : 2.65 µM (inactive)
Cc1ccc(N(Cc2ccccc2)Cc2ccccc2)cc1 : 82.4 µM (inactive)
O=S1(=O)OCCOS(=O)(=O)C1(F)Br : > 100 µM (inactive)

Answer for every listed entry: what is its GI50? The entries follow.
1. C=CCC(C)C12CCNC(Cc3ccc(O)cc31)C2C (stereo unspecified)
2. COc1cc(C(=O)C2C(=O)c3ccccc3C2C2(O)c3ccccc3CC2C(O)c2cc(OC)c(OC)c(OC)c2)cc(OC)c1OC (stereo unspecified)
3. COc1ccc(C(=O)N2CCc3c([nH]c4ccccc34)C2C(=O)O)o1 (stereo unspecified)
4. O=C(Nc1cc2c(=O)oc3ccccc3c2oc1=O)c1cccnc1
5. Brc1ccc2c(-c3csc(-c4c[nH]c5cc(Br)ccc45)n3)c[nH]c2c1
6. CCOC(=O)C1CC(C(=O)c2ccccc2)N2c3ccccc3-c3ccccc3C12 (stereo unspecified)
7. O=[N+]([O-])c1ccc(Cl)c(CNc2ncnc3c2ncn3C2CCCCO2)c1 (stereo unspecified)

a:
["> 100 µM (inactive)", "> 100 µM (inactive)", "> 10 µM (inactive)", "> 100 µM (inactive)", "40.5 µM (inactive)", "46.7 µM (inactive)", "22.8 µM (inactive)"]

----------
Please respond with reported GI50 for every item in the list.
test system: SK-MEL-28; experiment: NCI tumour cell line growth inhibition, 48 h
Active and inactive are the calls of the source. Cut-off read from the data, not from the text of the source: active = GI50 up to about 1.1 µM and inactive = higher.

Guide cases for GI50, answers given:
O=S1(=O)OCCOS(=O)(=O)C1Cl : > 100 µM (inactive)
CC(=O)N(C(C)=O)c1cc2c3c(c1)CCCN3CCC2 : > 10 µM (inactive)

For each listed entry, give its GI50.
1. NC(=O)c1c[se]c(C2OC(CO)C(O)C2O)n1 (stereo unspecified)
2. Nc1nc(SCCC/C=C/B(O)O)nc2c1ncn2C1OC(CO)C(O)C1O (stereo unspecified)
3. COC(=O)[C@@H]1C[C@]2(CC=C(C)C)c3ccccc3N(S(=O)(=O)c3ccccc3)[C@@H]2N1C(=O)OC
4. Cn1c(=O)sc2cc(C(=S)N3CCC(Cc4ccccc4)CC3)ccc21
5. CC[C@@]1(O)C(=O)OCc2c1cc1n(c2=O)Cc2c-1nc1ccccc1c2Cl
6. NC1C2(CCCCCC2)NC(=O)C12CCCCCC2 (stereo unspecified)
7. COC(=O)C(=NNc1ccccc1[N+](=O)[O-])C(=O)OC

a:
1. 2.61 µM (inactive)
2. > 243 µM (inactive)
3. 47.1 µM (inactive)
4. 46.6 µM (inactive)
5. 0.204 µM (active)
6. > 100 µM (inactive)
7. > 100 µM (inactive)

Parameter requested: GI50. Apply to each item below.
1. COc1ccc2c3c(ccc2c1)NC(C(=O)O)CC3 (stereo unspecified)
2. Cc1ccc(/N=N/c2c(C)nn(C(=O)CC(=O)Nc3ccccc3)c2C)cc1C

a:
1. 67.8 µM (inactive)
2. > 100 µM (inactive)

----------
test system: CAKI-1; assay: NCI tumour cell line growth inhibition, 48 h
The source made the active and inactive calls. Rule as the data show it: active = GI50 up to about 1.1 µM and inactive = higher.
Returns: one label drawn from active, inactive

// below: answered compounds
NC1N=C(c2ccc(Cl)cc2)C2=C(N1)c1ccccc1CC2 (configuration not stated) : inactive
C=C(C)CCC1CC=[N+]([O-])OC1C(C)(C)C (configuration not stated) : inactive
O=C1Nc2cc(Cl)ccc2C(=O)N2CCC[C@@H]12 : inactive
COc1cc(OC)c([C@@H]2OC(=O)C3C2C(=O)O[C@H]3c2cc(OC)c(OC)cc2OC)cc1OC (some centres not stated) : inactive
COc1cc2c(cc1OC)CC(=O)c1cc(OC)c(OC)cc1/C=C\2 : inactive

q: Assay outcome for "CCc1ccccc1NC(=O)c1cccc([N+](=O)[O-])c1O" : what was it?
a: inactive

q: Please state the recorded outcome for this compound: CC[C@@]1(O)C[C@H](OC2CC(N(C)C)C(O)C(C)O2)c2c(O)c3c(c(O)c2[C@H]1OC1CC(N(C)C)C(O)C(C)O1)C(=O)c1cccc(O)c1C3=O (some centres not stated)
a: active

----------
tested on: SNB-75; experiment: NCI tumour cell line growth inhibition, 48 h
The source made the active and inactive calls. Cut-off read from the data, not from the text of the source: active = GI50 up to about 1.1 µM and inactive = higher.
The reply should name one outcome from active, inactive

q: For this compound, state the assay outcome: "O=[N+]([O-])c1ccc2sc(/C=N/c3ccccn3)cc2c1"
a: inactive

q: For C=CCCC(OCOCCOC)c1cc(C)c(O[Si](C)(C)C(C)(C)C)c(C)c1 (stereo not drawn) , which call appears in the assay record?
a: inactive

q: Short answer needed: outcome of this test for "CSc1nn(C)cc2ncnc1-2" ?
a: active

q: Hi team, can someone confirm the assay call for "O=C(Nc1c(Cl)cccc1Cl)c1c(Cl)c(Cl)c(Cl)c(Cl)c1-c1nc2ccccc2[nH]1" ?
a: active

q: Kindly provide the recorded test outcome for the following compound: "Cc1nc(N)c(N2CCN(C(=O)O)CC2)c(O)n1"
a: inactive

----------
tested on: A498; assay: NCI tumour cell line growth inhibition, 48 h
Calls of active or inactive are those of the source. Rule as the data show it: active = GI50 up to about 1.1 µM and inactive = higher.
Please go through the items and note down their GI50.

Cc1cn(C2CC(Br)C(COC(c3ccccc3)(c3ccccc3)c3ccccc3)O2)c(=O)[nH]c1=O (stereo not given) : 15.3 µM (inactive)
O=C(Cn1c(=O)oc2ccc(C(=O)c3ccccc3Cl)cc21)c1ccc([N+](=O)[O-])cc1 : 30.1 µM (inactive)
CSC(=S)N/N=C(\C)c1cccc(C)n1 : 2.21 µM (inactive)

Required: GI50, one value per molecule below.
1. Cc1nc(N)c(N2CCN(C(=O)O)CC2)c(O)n1
2. CCCN(CCCCC(NC(C)=O)C(=O)NCc1ccccc1)C(=O)NC (stereo not given)

a:
1: > 100 µM (inactive); 2: > 100 µM (inactive)

Each molecule below has a recorded value; state its GI50.
1. COc1ccc(NC(C)=O)cc1N1C(=O)/C(=C\c2cccc(Oc3ccccc3)c2)SC1c1ccccc1 (stereo not given)
2. COc1ccc(-c2c(C#N)c(-c3ccc(C)cc3)n(NS(=O)(=O)c3ccc(C)cc3)c(=O)c2C#N)cc1
3. [N-]=[N+]=Nc1c(N2CCOCC2)c(Cl)nc2ccccc12
4. O=c1cc(NCC2CCCCC2)[nH]c(=O)[nH]1
5. CCC1CCC2c3c([nH]c4ccc(C)cc34)C3C(=O)N(N(C)C)C(=O)C3C2C1 (stereo not given)

a:
1: 56.4 µM (inactive); 2: 92 µM (inactive); 3: 47.9 µM (inactive); 4: > 100 µM (inactive); 5: > 100 µM (inactive)

----------
Please go through the items and note down their GI50.
tested on: TK-10; assay: NCI tumour cell line growth inhibition, 48 h
Activity calls are given as the source filed them. Cut-off read from the data, not from the text of the source: active = GI50 up to about 1.1 µM and inactive = higher.

COC(=O)C(C#N)C1NC(=O)c2ccccc21 (stereo not drawn) : > 100 µM (inactive)

Provide the reported GI50 of each entry below, same order.
1. Cc1nc2ccccc2nc1CC(=O)C(=O)Nc1ccc(Cl)cc1Cl
2. COc1ccc(NC(C)=O)cc1N1C(=O)/C(=C\c2cccc(Oc3ccccc3)c2)SC1c1ccccc1 (stereo not drawn)
3. O=C1NC(=S)NC(=O)C1=Cc1ccc[nH]1
4. COc1ccc([N+]2=NC(c3ccc([N+](=O)[O-])cc3)=NN(c3ccccc3)C2)cc1
5. C=C1C(OC(C)=O)CC(OC(C)=O)C2(C)C(OC(C)=O)C(OC(C)=O)C3=C(C)C(OC(=O)/C=C/c4ccccc4)CC(C(OC(C)=O)C12)C3(C)C (stereo not drawn)
6. O=C(Nc1cc2c(=O)oc3ccccc3c2oc1=O)c1cccnc1

a:
1. > 100 µM (inactive)
2. 49.3 µM (inactive)
3. 17.4 µM (inactive)
4. > 100 µM (inactive)
5. > 100 µM (inactive)
6. > 100 µM (inactive)

For every item below, please supply its GI50.
1. CNC(=O)OCc1cnc([N+](=O)[O-])n1C
2. C=C(C)CCC1CC=[N+]([O-])OC1C(C)(C)C (stereo not drawn)
3. O=c1c(Cc2ccccc2)c(-c2ccccc2)[nH]n1C1=NCCN1
4. CC12CC(=O)NN=C1c1ccccc1C2 (stereo not drawn)
5. CN(C)Cc1cc(/C(=C(\C#N)c2ccccc2)c2ccc(O)cc2)ccc1O

a:
1: > 100 µM (inactive); 2: > 100 µM (inactive); 3: 37.6 µM (inactive); 4: > 100 µM (inactive); 5: 23 µM (inactive)

----------
test system: HCC 2998; test: NCI tumour cell line growth inhibition, 48 h
Activity calls are given as the source filed them. Cut-off read from the data, not from the text of the source: active = GI50 up to about 1.1 µM and inactive = higher.
observation type: GI50

CC(=O)NC1=C(NC(C)(C)C)C(=O)c2ccccc2C1=O : > 100 µM (inactive)
Cc1cccc(-n2c(N)c(-c3nc4ccccc4[nH]3)sc2=S)c1 : > 10 µM (inactive)
Cc1cccc(/N=N/c2ccc(O)c(CN(C)C)c2)c1 : 16.4 µM (inactive)
Cc1cc(S(=O)(=O)N2CCNNC2=O)c(S)cc1Cl : > 100 µM (inactive)
CC(=O)N(C(C)=O)c1cc2c3c(c1)CCCN3CCC2 : > 10 µM (inactive)

// each compound listed below needs its GI50
1. COC(=O)CP1(=O)OC2C(C3CCC2(C)C3(C)C)N1c1cc(C(F)(F)F)cc(C(F)(F)F)c1 (stereo unspecified)
2. COc1cc2cccc(/N=C\c3cccc(OC)c3OC(C)C)c2cc1OC

a:
["22.9 µM (inactive)", "35.9 µM (inactive)"]

For every listed record, write down its GI50.
1. O=c1[nH]cnc2[nH]nnc12
2. CNN1C(=O)c2c(N)c(C#N)c(-c3ccccc3)c(-c3ccccc3)c2C1=O
3. Cn1nc2ccc3nccc(NCCNCCCl)c3c2n1
4. O=C1C2=C(N[C@@H](c3ccccc3)[C@H](c3ccccc3)N2)C(=O)c2ccccc21

a:
18.1 µM (inactive)
> 100 µM (inactive)
> 100 µM (inactive)
> 100 µM (inactive)
